Taken from paper PMC3310199.

tested_on: papain (Carica papaya)
Sequence (P00784 134-345): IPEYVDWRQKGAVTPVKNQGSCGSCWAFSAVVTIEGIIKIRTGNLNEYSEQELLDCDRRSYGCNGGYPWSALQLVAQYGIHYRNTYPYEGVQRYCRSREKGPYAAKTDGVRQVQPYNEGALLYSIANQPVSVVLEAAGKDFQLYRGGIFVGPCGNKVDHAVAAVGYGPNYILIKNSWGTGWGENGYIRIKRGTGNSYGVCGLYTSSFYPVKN
assay_explanation: Papain activity assay
Type: biochemical
condition_set: papain 0.9 μM, 4.8 × 10^3 molar excess of peptide/analogue
attribute_measured: inhibitory effect on papain activity (Figure 5B)

[
  {
    "compound": "NC(=O)CN[C@H]1CCCNC1 [(S)-pipG, (+)-2-((S)-Piperidin-3-ylamino)acetamide]",
    "test_value": "hardly affecting papain"
  },
  {
    "compound": "CC(C)C[C@H](N)C(=O)N1CCC[C@@H](NCC(N)=O)C1 [(R)-LpipG]",
    "test_value": "hardly affecting papain"
  }
]
